Experiment: Plasma concentration after intravenous dose in rats
Format: in vivo
Settings: rat, intravenous 20 mg/kg, 24 hours, read-out: plasma level after twenty-four hours

molecule	scale unit	concentration at 24 h
CC1=C(C(=O)O)N2C(=O)C(NC(=O)[C@H](N)c3ccc4ccccc4c3)C2SC1 (stereo partly shown) [Example 3]	ng/mL	1960

###

Tested on: Staph. epi
Experiment: Agar dilution MIC, Staph. epi
Format: cell-based
Conditions: Table II, strain 219; read-out: MIC
quantity measured: MIC (µg/mL)

molecule	system	recorded number
CC1=C(C(=O)O)N2C(=O)C(NC(=O)[C@H](N)c3ccc4cc(O)ccc4c3)C2SC1 (stereo partly shown)	Staph. epi	0.5
CC1=C(C(=O)O)N2C(=O)C(NC(=O)[C@H](N)c3ccc4ccccc4c3)C2SC1 (stereo partly shown)	Staph. epi	0.5
COc1ccc2cc([C@@H](N)C(=O)NC3C(=O)N4C(C(=O)O)=C(C)CSC34)ccc2c1 (stereo partly shown)	Staph. epi	5
COCC1=C(C(=O)O)N2C(=O)C(NC(=O)[C@H](N)c3ccc4ccccc4c3)C2SC1 (stereo partly shown)	Staph. epi	0.5

###

Listing of entries alongside the reported MIC.
Tested on: Staph. aureus
Test: Agar dilution MIC, Staph. aureus
Assay type: cell-based
Settings: Staphylococcus aureus, Table II, strain S227; read-out: MIC
quantity measured: MIC

compound	result
COc1ccc2cc([C@@H](N)C(=O)NC3C(=O)N4C(C(=O)O)=C(C)CSC34)ccc2c1 (some centres unmarked)	1 µg/mL
CC1=C(C(=O)O)N2C(=O)C(NC(=O)[C@H](N)c3ccc4ccccc4c3)C2SC1 (some centres unmarked)	1 µg/mL
CC1=C(C(=O)O)N2C(=O)C(NC(=O)[C@H](N)c3ccc4cc(Cl)ccc4c3)C2SC1 (some centres unmarked)	0.5 µg/mL
CC1=C(C(=O)O)N2C(=O)C(NC(=O)[C@H](N)c3ccc4cc(O)ccc4c3)C2SC1 (some centres unmarked)	0.5 µg/mL
COCC1=C(C(=O)O)N2C(=O)C(NC(=O)[C@H](N)c3ccc4ccccc4c3)C2SC1 (some centres unmarked)	0.5 µg/mL

###

Test system: Klebsiella
Assay: Agar dilution MIC, Klebsiella
Format: cell-based
Settings: Klebsiella; Table I, strain X26; read-out: MIC
Catalogue of MIC readings, one per entry.

molecule	MIC (µg/mL)
CC1=C(C(=O)O)N2C(=O)C(NC(=O)[C@H](N)c3ccc4cc(O)ccc4c3)C2SC1 (stereo partly shown)	4
CC1(C)S[C@@H]2[C@H](NC(=O)[C@H](N)c3ccccc3)C(=O)N2[C@H]1C(=O)O [Ampicillin, reference compound]	16
COc1ccc2cc([C@@H](N)C(=O)NC3C(=O)N4C(C(=O)O)=C(C)CSC34)ccc2c1 (stereo partly shown)	4
N[C@@H](C(=O)NC1C(=O)N2C(C(=O)O)=CCSC12)c1ccc2ccccc2c1 (stereo partly shown)	16
COC1=C(C(=O)O)N2C(=O)C(NC(=O)C(N)c3ccc4ccccc4c3)C2SC1 (racemic)	8
CC1=C(C(=O)O)N2C(=O)C(NC(=O)[C@H](N)c3ccc4cc(Cl)ccc4c3)C2SC1 (stereo partly shown)	8
CC1=C(C(=O)O)N2C(=O)C(NC(=O)[C@H](N)c3ccc4ccccc4c3)C2SC1 (stereo partly shown)	2

###

Test system: Staph. aureus
Assay: Agar dilution MIC, Staph. aureus
Format: cell-based
Conditions: Staphylococcus aureus, Table II, strain S231; read-out: MIC
As shown below, each of these compounds has a reported MIC value.
quantity measured: MIC

compound	result
COc1ccc2cc([C@@H](N)C(=O)NC3C(=O)N4C(C(=O)O)=C(C)CSC34)ccc2c1 (some centres unmarked) [Example 10]	0.25 µg/mL
CC1=C(C(=O)O)N2C(=O)C(NC(=O)[C@H](N)c3ccc4cc(O)ccc4c3)C2SC1 (some centres unmarked) [Example 11]	0.5 µg/mL
COCC1=C(C(=O)O)N2C(=O)C(NC(=O)[C@H](N)c3ccc4ccccc4c3)C2SC1 (some centres unmarked) [Example 8]	0.5 µg/mL
CC1=C(C(=O)O)N2C(=O)C(NC(=O)[C@H](N)c3ccc4cc(Cl)ccc4c3)C2SC1 (some centres unmarked) [Example 7]	0.25 µg/mL
CC1=C(C(=O)O)N2C(=O)C(NC(=O)[C@H](N)c3ccc4ccccc4c3)C2SC1 (some centres unmarked) [Example 3]	0.5 µg/mL
